# Assay: Acute toxicity test, rat (Test 5)
# Assay type: in vivo
# Protocol Conditions: rat, in vivo, iv; Male; 14 days observation
Experimental Endpoint: LD50 at 336 h

Entry O=C(O)C(=O)Nc1cccc(-c2nnn[nH]2)c1 — recorded LD50 at 336 h = > 180 mg/kg

----------
# Assay: Acute toxicity test, mouse (Test 5)
# Format: in vivo
# Protocol Conditions: mouse, in vivo, po; Male; 14 days observation
Experimental Endpoint: LD50 at 336 h

Entry O=C(O)C(=O)Nc1cccc(-c2nnn[nH]2)c1 — recorded LD50 at 336 h = > 2000 mg/kg

----------
# Assay: Acute toxicity test, dog (Test 5)
# Format: in vivo
# Protocol Conditions: dog, in vivo, po; Male, p.o. (capsule); 14 days observation
Experimental Endpoint: LD50 at 336 h

Entry O=C(O)C(=O)Nc1cccc(-c2nnn[nH]2)c1 — recorded LD50 at 336 h = > 2000 mg/kg

----------
# Assay: Acute toxicity test, mouse (Test 5)
# Format: in vivo
# Protocol Conditions: mouse, in vivo, iv; Male; 14 days observation
Experimental Endpoint: LD50 at 336 h

Entry O=C(O)C(=O)Nc1cccc(-c2nnn[nH]2)c1 — recorded LD50 at 336 h = > 225 mg/kg

----------
# Assay: Acute toxicity test, rat (Test 5)
# Type: in vivo
# Protocol Conditions: rat, in vivo, po; Male; 14 days observation
Experimental Endpoint: LD50 at 336 h

Entry O=C(O)C(=O)Nc1cccc(-c2nnn[nH]2)c1 — recorded LD50 at 336 h = > 2000 mg/kg
